- EXPERIMENTAL_TARGET: phosphorylated ERBB2 (pERBB2) (Homo sapiens (Human), UniProt P04626)
- Sequence (P04626 23-1255): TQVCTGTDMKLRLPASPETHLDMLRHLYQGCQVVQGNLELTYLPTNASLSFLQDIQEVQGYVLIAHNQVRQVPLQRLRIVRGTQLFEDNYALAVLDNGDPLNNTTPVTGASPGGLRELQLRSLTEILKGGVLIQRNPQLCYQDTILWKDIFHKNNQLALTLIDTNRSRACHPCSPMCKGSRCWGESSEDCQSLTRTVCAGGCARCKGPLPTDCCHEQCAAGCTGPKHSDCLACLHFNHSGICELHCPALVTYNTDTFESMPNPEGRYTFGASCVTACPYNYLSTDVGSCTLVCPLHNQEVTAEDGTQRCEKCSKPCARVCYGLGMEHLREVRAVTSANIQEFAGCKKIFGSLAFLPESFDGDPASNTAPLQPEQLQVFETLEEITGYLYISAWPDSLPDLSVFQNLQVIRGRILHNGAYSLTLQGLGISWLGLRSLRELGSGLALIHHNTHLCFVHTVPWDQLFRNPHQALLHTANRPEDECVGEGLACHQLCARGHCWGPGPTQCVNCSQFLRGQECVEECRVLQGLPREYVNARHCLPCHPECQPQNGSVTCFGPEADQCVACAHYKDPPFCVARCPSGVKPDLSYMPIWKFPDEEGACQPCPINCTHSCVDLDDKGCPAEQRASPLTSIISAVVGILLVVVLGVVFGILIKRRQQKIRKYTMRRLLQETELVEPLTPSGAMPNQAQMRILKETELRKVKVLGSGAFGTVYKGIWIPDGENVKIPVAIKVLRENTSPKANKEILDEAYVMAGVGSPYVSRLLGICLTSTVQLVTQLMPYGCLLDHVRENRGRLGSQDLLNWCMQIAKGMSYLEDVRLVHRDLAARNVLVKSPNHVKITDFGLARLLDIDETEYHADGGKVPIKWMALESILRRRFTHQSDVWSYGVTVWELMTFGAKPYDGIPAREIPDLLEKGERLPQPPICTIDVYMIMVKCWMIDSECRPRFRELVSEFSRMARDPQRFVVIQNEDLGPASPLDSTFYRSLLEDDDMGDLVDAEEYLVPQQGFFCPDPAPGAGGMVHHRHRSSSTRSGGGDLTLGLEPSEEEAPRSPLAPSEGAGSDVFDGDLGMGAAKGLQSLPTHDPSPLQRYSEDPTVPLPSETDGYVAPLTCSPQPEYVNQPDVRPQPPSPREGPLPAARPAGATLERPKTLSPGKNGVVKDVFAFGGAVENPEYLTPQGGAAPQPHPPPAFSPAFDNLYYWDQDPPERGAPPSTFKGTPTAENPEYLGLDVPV
- MEASUREMENT_DESCRIPTION: Detection of phosphorylated ERBB2 (pERBB2) by ELISA in BT-474 cells
- EXPERIMENTAL_CONTEXT: four hours incubation with compound
MEASURED_PROPERTY: IC50 (nM)

{"columns": ["COMPOUND", "UNIT_ABBREVIATION", "TEST_RESULT"],
 "data": [
  ["Cc1cc(Nc2ncnc3cc4c(nc23)N2CCN(C(=O)/C=C/CN(C)C)C(CO4)C2)ccc1Oc1cncc(F)c1 (stereo in doubt)", "nM", 8.84],
  ["CC#CC(=O)N1CCN2CC1COc1cc3ncnc(Nc4ccc(Oc5ccn6ncnc6c5)c(C)c4)c3cc12 (stereo in doubt) [Compound 17]", "nM", 1050]
]}

(a) Cc1cc(Nc2ncnc3cc4c(nc23)N2CCN(C(=O)/C=C/C3(F)CN(C)C3)C(CO4)C2)ccc1Oc1ccn2ncnc2c1 (stereo in doubt)
(b) Cc1cc(Nc2ncnc3cc4c(cc23)N2CCN(C(=O)/C=C/CN(C)C)C(CO4)C2)ccc1Oc1ccn2ncnc2c1 (stereo in doubt) [Compound 8]
(c) C=CC(=O)N1CCN2C[C@@H]1COc1cc3ncnc(Nc4ccc(Cc5ccn6ncnc6c5)c(C)c4)c3nc12
Enquiry: Could you please order the items by IC50, going from the lowest number to the highest? Would you mind listing the labels in the order asked for?
Return: a, b, c

(I) C=C(F)C(=O)N1CCN2CC1COc1cc3ncnc(Nc4ccc(Oc5ccn6ncnc6c5)c(C)c4)c3nc12 (stereo in doubt)
(II) Cc1cc(Nc2ncnc3cc4c(nc23)N2CCN(C(=O)/C=C/[C@H](C)N(C)C)C(CO4)C2)c(F)cc1Oc1ccn2ncnc2c1 (stereo in doubt)
Enquiry: Which value of IC50 is numerically greater: that of I or that of II ? Identify your pick by its label.
Return: I
